# MEASURED_TARGET: N-lysine methyltransferase SMYD2 (Homo sapiens)
# Sequence (Q9NRG4 whole entry): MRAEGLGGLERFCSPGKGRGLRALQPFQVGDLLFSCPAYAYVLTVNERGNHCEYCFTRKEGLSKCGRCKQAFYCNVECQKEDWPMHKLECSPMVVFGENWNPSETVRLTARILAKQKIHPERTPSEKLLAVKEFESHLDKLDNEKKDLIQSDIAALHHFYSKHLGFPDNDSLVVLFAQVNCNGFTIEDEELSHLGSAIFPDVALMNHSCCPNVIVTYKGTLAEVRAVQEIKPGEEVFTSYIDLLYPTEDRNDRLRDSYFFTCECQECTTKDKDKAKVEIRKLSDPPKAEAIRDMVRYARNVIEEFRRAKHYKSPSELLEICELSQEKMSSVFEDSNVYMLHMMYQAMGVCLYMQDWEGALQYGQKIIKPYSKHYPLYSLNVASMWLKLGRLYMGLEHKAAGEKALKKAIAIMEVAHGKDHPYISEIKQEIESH
# TEST_DETAILS: Inhibition of SMYD2 (unknown origin) expressed in human U2OS cells assessed as reduction in monomethylated p53 levels incubated for 24 hrs by immunofluorescence assay
MEASURE: EC50 (nM)

Solved entries (count: 4):
Cc1cccc(CCN2CCN(c3ccccc3-c3cc(C#N)cc(C(=O)NCCCN4CCCC4)c3)CC2)c1	1210
COc1cccc(CCN2CCN(c3ccccc3-c3cc(C#N)cc(C(=O)NCCCN4CCCC4)c3)CC2)c1	2690
O=C(NCCCN1CCCC1)c1cccc(-c2ccccc2N2CCN(CCc3ccc(Cl)cc3)CC2)c1	3120
Cc1cccc(CCN2CCN(c3ccccc3-c3cccc(C(=O)NCCCN4CCCC4)c3)CC2)c1	4140

[P] O=C(NCCCN1CCCC1)c1ccnc(-c2ccccc2N2CCN(CCc3c[nH]c4ccccc34)CC2)c1
[Q] N#Cc1cc(C(=O)NCCCN2CCCC2)cc(-c2ccccc2N2CCN(CCc3c[nH]c4ccccc34)CC2)c1
[R] O=C(NCCCN1CCCC1)c1cncc(-c2ccccc2N2CCN(CCc3c[nH]c4ccccc34)CC2)c1
[S] O=C(NCCCN1CCCC1)c1cccc(-c2ccccc2N2CCN(CCc3c[nH]c4ccccc34)CC2)c1
[T] O=C(NCCCN1CCCC1)c1cncc(-c2ccccc2N2CCN(CCc3ccc(Cl)c(Cl)c3)CC2)c1
Req: Sort entries by EC50 from minimum to maximum value. Ranked list of labels, please, in the requested order.
Resp: Q, T, R, S, P
(Q: 270 nM, T: 450 nM, R: 1020 nM, S: 3460 nM, P: 5610 nM)

[P] O=C(NCCCN1CCCC1)c1ccnc(-c2ccccc2N2CCN(CCc3ccc(Cl)c(Cl)c3)CC2)c1
[Q] COc1cccc(CCN2CCN(c3ccccc3-c3cc(C(=O)NCCCN4CCCC4)ccn3)CC2)c1
[R] N#Cc1cc(C(=O)NCCCN2CCCC2)cc(-c2ccccc2N2CCN(CCc3ccc(Cl)c(Cl)c3)CC2)c1
[S] COc1cccc(CCN2CCN(c3ccccc3-c3cccc(C(=O)NCCCN4CCCC4)c3)CC2)c1
[T] COc1ccc(CCN2CCN(c3ccccc3-c3cc(C(=O)NCCCN4CCCC4)ccn3)CC2)cc1
Req: Sort by EC50, descending. Ranked list of labels, please, in the requested order.
Resp: P, S, T, Q, R
(P: 5570 nM, S: 3500 nM, T: 2440 nM, Q: 1220 nM, R: 425 nM)

[P] O=C(NCCCN1CCCC1)c1cc(-c2ccccc2N2CCN(CCc3ccc(Cl)c(Cl)c3)CC2)nc2[nH]ncc12
[Q] O=C(NCCCN1CCCC1)c1ccnc(-c2ccccc2N2CCN(CCc3ccc(Cl)cc3)CC2)c1
[R] O=C(NCCCN1CCCC1)c1cccc(-c2ccccc2N2CCN(CCc3ccccc3)CC2)c1
[S] O=C(NCCCN1CCCC1)c1cccc(-c2ccccc2N2CCN(CCc3ccc(Cl)c(Cl)c3)CC2)c1
Req: Sort by EC50, descending. Ranked list of labels, please, in the requested order.
Resp: R, S, Q, P
(R: 4910 nM, S: 3230 nM, Q: 1620 nM, P: 549 nM)
